- TEST_NAME: in vitro
- TEST_CONDITIONS: human, Average cell viability
OUTCOME_MEASURE: viability at 72 h, 50 ug/mL (%)
Dear colleague, please return just the value in %, with no unit written.

INSERT INTO measurements (molecule, experimental_result) VALUES
  ('CCCCC/C=C\C/C=C\CCCCCCCC(=O)O', 13);

Alright, here's another compound for you.
Query: # return recorded viability at 72 h, 50 ug/mL for entry `CC/C=C\C/C=C\C/C=C\CCCCCCCC(=O)O`
Reply: 77

====

- Tested on: A549 (lung carcinoma)
- TEST_NAME: CIMA assay (colorimetric indicator of metabolic activity), cell viability, A549
- TEST_CONDITIONS: A549; positive control SDS 250 ug/ml; unit assumed
OUTCOME_MEASURE: Average cell viability (%)
// units = %; emit number, no label

Query: Provide Average cell viability value for the following compound: CCCCCCCCCCCCOS(=O)(=O)[O-].[Na+] [SDS, reference compound]
Reply: 11

====

- Tested on: MDA-MB
- TEST_CONDITIONS: MDA-MB, sample at 1 ug/mL
# MDA-MB AVG per entry
Write the number on its own, no unit after it.

INSERT INTO assay_data (compound, outcome_measure, experimental_result) VALUES
  ('CC/C=C\C/C=C\C/C=C\C/C=C\C/C=C\CCCC(=O)OCC(COC1OC(CO)C(O)C(O)C1O)OC(=O)CCC/C=C\C/C=C\C/C=C\C/C=C\C/C=C\CC (centres unmarked) [Compound 7, MGDG C20:5/C20:5]', 'MDA-MB AVG', 1.16),
  ('CCCCC/C=C\C/C=C\CCCCCCCC(=O)O [Compound 20, linoleic acid]', 'MDA-MB AVG', 1.09),
  ('CC/C=C\C/C=C\C/C=C\C/C=C\C/C=C\CCCC(=O)OCC(O)COC1OC(CO)C(O)C(O)C1O (centres unmarked) [Compound 13, lyso-MGDG C20:5]', 'MDA-MB AVG', 1.11),
  ('CC/C=C\C/C=C\C/C=C\CCCCCCCC(=O)O [Compound 19, α-linolenic acid]', 'MDA-MB AVG', 1.17);

Query: Provide the reported MDA-MB AVG (system: MDA-MB) for CC/C=C\C/C=C\C/C=C\C/C=C\CCC(=O)OC(COC(=O)CCCCCCC/C=C\C/C=C\C/C=C\CC)COC1OC(CO)C(O)C(O)C1O (centres unmarked) [Compound 14, MGDG C18:3/C16:4]
Reply: 1.13

====

- Test system: THP-1 (acute monocytic leukemia)
- TEST_NAME: CIMA assay, cell viability, THP-1
- TEST_CONDITIONS: THP-1; 100 ug/mL
OUTCOME_MEASURE: Fold change in viability AVG
I only need the number, thanks.

Consider the following illustrative entries.
INSERT INTO assay_data (compound, target_entity, experimental_result) VALUES
  ('CCCCCCCCCCCCCCCC(=O)OCC(O)CO (stereo not shown)', 'THP-1 (acute monocytic leukemia)', 1.19),
  ('CC/C=C\C/C=C\C/C=C\C/C=C\CCC(=O)OC(COC(=O)CCCCCCC/C=C\C/C=C\C/C=C\CC)COC1OC(CO)C(O)C(O)C1O (stereo not shown)', 'THP-1 (acute monocytic leukemia)', 0.58),
  ('CC/C=C\C/C=C\C/C=C\CCCCCCCC(=O)O', 'THP-1 (acute monocytic leukemia)', 0.35),
  ('CCCCC/C=C\C/C=C\CCCCCCCC(=O)O', 'THP-1 (acute monocytic leukemia)', 0.19),
  ('CCCCCCCCCCCCCCCC(=O)OCC(COC1OC(CO)C(O)C(O)C1O)OC(=O)CCCCCCCCCCCCC (stereo not shown)', 'THP-1 (acute monocytic leukemia)', 0.52),
  ('CC/C=C\C/C=C\C/C=C\C/C=C\C/C=C\CCCC(=O)OCC(O)COC1OC(CO)C(O)C(O)C1O (stereo not shown)', 'THP-1 (acute monocytic leukemia)', 0.31);

Query: Recall and state the measured Fold change in viability AVG for CC/C=C\C/C=C\C/C=C\C/C=C\C/C=C\CCCC(=O)OCC(COC1OC(CO)C(O)C(O)C1O)OC(=O)CCC/C=C\C/C=C\C/C=C\C/C=C\C/C=C\CC (stereo not shown) .
Reply: 0.57
